B1: Zinc finger MYM-type protein 3, residues 405 to 444; numbered along this chain, Q14202 (parent)
chain: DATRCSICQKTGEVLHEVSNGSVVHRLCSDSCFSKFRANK

variants of: B1; assay: abundance fitness (aPCA) (normalised: wild type 0, dead -1); higher = more abundant; growth selection in yeast, the domain comes from the species named; settings: Homo sapiens
Entries get a class label from measured abundance fitness. See ranges: class A = under -0.3, class B = from -0.3 up to -0.05, class C = -0.05 and over

>>> class_name("DATRCSICQKTGELLHEVSNGSVVHRLCSDSCFSKFRANK [V14L]")
"class A"
>>> class_name("DATRCSICQKTGEVLHEVSNGSVVHRLCTDSCFSKFRANK [S29T]")
"class A"
>>> class_name("DATRCSICQKTGEVLHEVSNGSHVHRLCSDSCFSKFRANK [V23H]")
"class C"
>>> class_name("DATRCSICQKTGEVLHEVSNGSVVHRLCDDSCFSKFRANK [S29D]")
"class A"
>>> class_name("DATRCSICQKTGEVLHEVSNGSVVHRDCSDSCFSKFRANK [L27D]")
"class A"
>>> class_name("DATRCSICQKTGEVLHEVSNGSVVHRLCADSCFSKFRANK [S29A]")
"class A"
>>> class_name("DATRCMICQKTGEVLHEVSNGSVVHRLCSDSCFSKFRANK [S6M]")
"class A"
>>> class_name("DATRCSICQKTGEVLHEVSNGSVVHRLCSDSCFDKFRANK [S34D]")
"class C"
>>> class_name("DATRCSICQKTGEVLHEVSNGSVVHRLCSDSCFSPFRANK [K35P]")
"class A"
>>> class_name("DATRCSICQKTGEVLHEVSNGSVVKRLCSDSCFSKFRANK [H25K]")
"class C"
>>> class_name("DATRCSICQKTGEVLHEVSNGSVVHRLCSDSCFSKFRAAK [N39A]")
"class C"
>>> class_name("DATRCSICQKTGEVLHEVSNGSVVHTLCSDSCFSKFRANK [R26T]")
"class C"
>>> class_name("DATRCSICQKTGEVLHEVSNGSVVHRLCSDSCFSKIRANK [F36I]")
"class B"
>>> class_name("DATRCSICQKTGEVLHEVSNGSVVHRLCSDSCFSLFRANK [K35L]")
"class B"
>>> class_name("DATRCSICQKTGEVLHEVSNGSVVHMLCSDSCFSKFRANK [R26M]")
"class B"
>>> class_name("DATRCSICYKTGEVLHEVSNGSVVHRLCSDSCFSKFRANK [Q9Y]")
"class C"
>>> class_name("DATRCSICQKTGEVLHEVSNGSVVHRLCSRSCFSKFRANK [D30R]")
"class B"
>>> class_name("DATRCSICQKTGEVLHEVSNGSVVHRLCSDSCKSKFRANK [F33K]")
"class C"
>>> class_name("TATRCSICQKTGEVLHEVSNGSVVHRLCSDSCFSKFRANK [D1T]")
"class C"
>>> class_name("DATRCSICQKTGEVLHEVSNGCVVHRLCSDSCFSKFRANK [S22C]")
"class A"
>>> class_name("DATRCSICQKTGEVLHEVSNGSVCHRLCSDSCFSKFRANK [V24C]")
"class B"
>>> class_name("DATRCSICQKTGEVLHVVSNGSVVHRLCSDSCFSKFRANK [E17V]")
"class A"
>>> class_name("DATRCSIDQKTGEVLHEVSNGSVVHRLCSDSCFSKFRANK [C8D]")
"class A"
>>> class_name("DATRCSICQKTGEVLHEVSNGSVVHRLCSDSCFSKFRALK [N39L]")
"class C"
>>> class_name("DATRCSICQKTGEVLHEVSNGSNVHRLCSDSCFSKFRANK [V23N]")
"class C"
>>> class_name("DATRCSICQKTGQVLHEVSNGSVVHRLCSDSCFSKFRANK [E13Q]")
"class B"
>>> class_name("DATRCSICQKTGEDLHEVSNGSVVHRLCSDSCFSKFRANK [V14D]")
"class B"
>>> class_name("DATRCSIMQKTGEVLHEVSNGSVVHRLCSDSCFSKFRANK [C8M]")
"class A"
>>> class_name("DATRCSICQKTGEVLHEVSNGSVVHRLCSDSCFSKFRGNK [A38G]")
"class C"
>>> class_name("DATRCSICQKTGEVLHEVSNGSVVHRLCSDSCFSKFRANE [K40E]")
"class C"
>>> class_name("DATRCSICQKTGEVLHEVSNGSVVHRLCIDSCFSKFRANK [S29I]")
"class A"
>>> class_name("DATRCSICQKTGEVLHEVSNGSVVHNLCSDSCFSKFRANK [R26N]")
"class B"
>>> class_name("DATRCSICQKTGEVLHEVSNGSVVHRRCSDSCFSKFRANK [L27R]")
"class A"
>>> class_name("DATRCSICQKTGEVLHEVSNGSVVHRLCSDSCFAKFRANK [S34A]")
"class C"
>>> class_name("DATRCSICQKTGEVLHEVSNGSVVHRLCSDSCFLKFRANK [S34L]")
"class C"
>>> class_name("DATRCSICQKTGEVLHEVSNGSVVHRYCSDSCFSKFRANK [L27Y]")
"class B"
>>> class_name("DATRCSICQKTGEVLHEVSNGSVVHRLCSDSCFSKFRAQK [N39Q]")
"class C"
>>> class_name("DATRCSICQKTGEVLHFVSNGSVVHRLCSDSCFSKFRANK [E17F]")
"class A"
>>> class_name("DAKRCSICQKTGEVLHEVSNGSVVHRLCSDSCFSKFRANK [T3K]")
"class C"
>>> class_name("DATRCSICQKTGEVLHEVSNGSVVHRLCSDSCFSKVRANK [F36V]")
"class B"
>>> class_name("DFTRCSICQKTGEVLHEVSNGSVVHRLCSDSCFSKFRANK [A2F]")
"class C"
>>> class_name("DATRCSICQKTGEVLHEVSNGSVVRRLCSDSCFSKFRANK [H25R]")
"class A"
>>> class_name("DATRCSICQKTGEVLHEVSNGSVVHRLCSVSCFSKFRANK [D30V]")
"class A"
>>> class_name("DATRCYICQKTGEVLHEVSNGSVVHRLCSDSCFSKFRANK [S6Y]")
"class C"
>>> class_name("DQTRCSICQKTGEVLHEVSNGSVVHRLCSDSCFSKFRANK [A2Q]")
"class C"
>>> class_name("DATRCSICQKTGEVLHEVVNGSVVHRLCSDSCFSKFRANK [S19V]")
"class B"
>>> class_name("DATRCSICQKTGEVLREVSNGSVVHRLCSDSCFSKFRANK [H16R]")
"class B"
>>> class_name("DATRDSICQKTGEVLHEVSNGSVVHRLCSDSCFSKFRANK [C5D]")
"class A"
>>> class_name("DATRCSICQKTGEVLHEVSNGSVVHRLCSDSCFSKFRANS [K40S]")
"class C"
>>> class_name("DATRCSICQKTGEVLHEVSNGSVVHYLCSDSCFSKFRANK [R26Y]")
"class A"
>>> class_name("DATRCSICQKTGEVLHCVSNGSVVHRLCSDSCFSKFRANK [E17C]")
"class A"
>>> class_name("DATRCSICQKTGEVLHEVSNGSVVHRSCSDSCFSKFRANK [L27S]")
"class A"
>>> class_name("DATRCSICQKTGEVLSEVSNGSVVHRLCSDSCFSKFRANK [H16S]")
"class A"
>>> class_name("DATRCSICQKFGEVLHEVSNGSVVHRLCSDSCFSKFRANK [T11F]")
"class B"
>>> class_name("DATRCSICQKTGEVLHEVSNGSVVHRPCSDSCFSKFRANK [L27P]")
"class A"
>>> class_name("DATRCSICQKTGEVLHEVSNGSVVHRLCSDSCFSKFPANK [R37P]")
"class B"
>>> class_name("DATRCSICQKTGEVLHEVSNCSVVHRLCSDSCFSKFRANK [G21C]")
"class A"
>>> class_name("DATRCSECQKTGEVLHEVSNGSVVHRLCSDSCFSKFRANK [I7E]")
"class A"
>>> class_name("DATRTSICQKTGEVLHEVSNGSVVHRLCSDSCFSKFRANK [C5T]")
"class A"
>>> class_name("AATRCSICQKTGEVLHEVSNGSVVHRLCSDSCFSKFRANK [D1A]")
"class B"
>>> class_name("DATRCSICQKTGEVLHEVSNGSVVHRLCSDSCFSKTRANK [F36T]")
"class B"
>>> class_name("DATRCSICQKTGEVLHEVSNGSVVQRLCSDSCFSKFRANK [H25Q]")
"class C"
>>> class_name("DATRCSICQKTGEVLHEVSNGSVVHRLCSDSCFSKFRANN [K40N]")
"class C"
>>> class_name("DAFRCSICQKTGEVLHEVSNGSVVHRLCSDSCFSKFRANK [T3F]")
"class B"
>>> class_name("DATRCSICQKTGEVLHEVDNGSVVHRLCSDSCFSKFRANK [S19D]")
"class B"
>>> class_name("DATRCSICQKTGEVLHEVSNGSVVHRLCSDSCFSKFRVNK [A38V]")
"class B"
>>> class_name("DATRCSICQKTGEVLHEVSNGSVVHRLCSDSCFSKFNANK [R37N]")
"class C"
>>> class_name("DATRCSICQKTGLVLHEVSNGSVVHRLCSDSCFSKFRANK [E13L]")
"class A"
>>> class_name("DATRCSICQKTGEVLHEVSNGSVVHRLCSDSCFSKFRADK [N39D]")
"class B"
>>> class_name("KATRCSICQKTGEVLHEVSNGSVVHRLCSDSCFSKFRANK [D1K]")
"class C"
>>> class_name("DATRCSICQKTGEVLHEVSNGSVHHRLCSDSCFSKFRANK [V24H]")
"class C"
>>> class_name("DATRCSICQKTGEVLHEVSNGSVVHRLCSDSFFSKFRANK [C32F]")
"class A"
>>> class_name("DATRCSICQKAGEVLHEVSNGSVVHRLCSDSCFSKFRANK [T11A]")
"class B"
>>> class_name("DATRCSICQKTGEVLHEVSNGSVVHRLCSDSCFRKFRANK [S34R]")
"class C"
>>> class_name("DGTRCSICQKTGEVLHEVSNGSVVHRLCSDSCFSKFRANK [A2G]")
"class B"
>>> class_name("DATRCSICQKTGEVLHEVSNGSVVHRLCSDSCFSKARANK [F36A]")
"class C"
>>> class_name("DATRCSICFKTGEVLHEVSNGSVVHRLCSDSCFSKFRANK [Q9F]")
"class B"
>>> class_name("DATRCSICQKTGEVLHEVSNGSVVHRLCSISCFSKFRANK [D30I]")
"class A"
>>> class_name("DATRCSICQKTGFVLHEVSNGSVVHRLCSDSCFSKFRANK [E13F]")
"class C"
>>> class_name("DASRCSICQKTGEVLHEVSNGSVVHRLCSDSCFSKFRANK [T3S]")
"class B"
>>> class_name("DATRCSICQKGGEVLHEVSNGSVVHRLCSDSCFSKFRANK [T11G]")
"class B"
>>> class_name("DATRCSICQKTGEVLHEVSNGSVVHRLESDSCFSKFRANK [C28E]")
"class A"
>>> class_name("DATRCSICQKTGEVLHEVSNGSVVHRLCSDSCFTKFRANK [S34T]")
"class C"
>>> class_name("DATRCSICQKTGEVLHEVSNGSKVHRLCSDSCFSKFRANK [V23K]")
"class C"
>>> class_name("DATRCSICQKTGEVYHEVSNGSVVHRLCSDSCFSKFRANK [L15Y]")
"class B"
>>> class_name("DATRCSICQKTGEVLHEVSNGLVVHRLCSDSCFSKFRANK [S22L]")
"class B"
>>> class_name("DATRCSICQKTGEVLHEVSNGSVKHRLCSDSCFSKFRANK [V24K]")
"class C"
>>> class_name("DATRCSICQKTGEVLHEVSNGSVVMRLCSDSCFSKFRANK [H25M]")
"class B"
